Molecular target: T1, human TREM2 on the cell surface (human, UniProt Q9NZC2 19-230)
T1 sequence: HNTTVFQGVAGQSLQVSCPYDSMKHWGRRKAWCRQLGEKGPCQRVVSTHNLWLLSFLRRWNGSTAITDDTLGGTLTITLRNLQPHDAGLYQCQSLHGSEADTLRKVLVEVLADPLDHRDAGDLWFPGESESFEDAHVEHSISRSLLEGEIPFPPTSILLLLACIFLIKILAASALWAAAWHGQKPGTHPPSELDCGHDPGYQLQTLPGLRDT
Test: cell-based or functional assay
measurement.label: pSyk activation (HEK293-H6) EC50 (nM)
Quick reminder: number only, in nM, skip the unit.

Field: example entries. Status: answers known.
Incoming: Would you mind telling me what pSyk activation (HEK293-H6) EC50 (nM) value was observed for CL0020309 (antibody, V domains shown, also called Clone CL0020309) VH: QVQLKQSGPSLVQPSQSLSITCTVSGFSLTSYGVQWVRQSPGKGLEWLGVIWTGGTTDFNAAFKSRLSITKDNSKSQVFFKMNSLQADDSAIYYCAKIGFHSAVDYWGQGTSVTVSS VL: DVLMTQTPLSLPVSLGDQASISCRSSQNIVHSNGNTYLEWYLQKPGQSPKLLIYKVSNRFSGVPDRFSGSGSGTDFTLKINRVEAEDLGLYYCFQGSHIPFTFGSGTQLEIK ?
Outgoing: 40.6

Incoming: // query: CL0020314 (antibody, V domains shown, also called Clone CL0020314) VH: DVKLVESGGGLVKLGGSLKLSCAASGFTFSSYYMSWVRQTPEKRLELVAAINTNGGRTYYPDTVKGRFTISRDNAKNTLYLQMSSLKSEDTALYYCARESDGGAFAYWGQGTLVTVSA VL: DVVMTQTPLSLPVSLGDQASISCRSSQSLVHSNGNTYLHWYLQKPGQSPKLLIYKVSNRFSGVPDRFSGSGSGTDFTLKISRVEAEDLGVYFCSQNTHVPLTFGAGTKLELK
Outgoing: 18.8

Incoming: // query: CL0020308 (antibody, V domains shown, also called Clone CL0020308) VH: QVQLKQSGPSLVQPSQSLSITCTVSGFSLTTYGIHWVRQSPGKGLEWLGVIWTGGSTAFNAAFMSRLSITKDNSKSQVFFKMNSLQADDTAIYYCAKVGFHSATDYWGQGTSVTVSS VL: DVLMTQTPLSLPVTLGDQASISCRSSQNLVHSNGNTYLEWYLQKPGQSPKLLIYKVSNRFSGVPDRFSGSGSGTDFTLKISRVEAEDLGLYYCFQGSHVPFTFGSGTKLEIK
Outgoing: 33.4

# ---- query binder ----
Incoming: Would you mind telling me what pSyk activation (HEK293-H6) EC50 (nM) value was observed for CL0020313 (antibody, V domains shown, also called Clone CL0020313) VH: QVQLKQSGPGLLQPSQSLSITCTVSGFSLTSYGVHWVRQSPGKGLEWLGVIWSGGITLYNAAFMSRLSITKDNSKSQVFFKMNSLQADDTAIYYCAKVGYGSSSDYWGQGTTLTVSS VL: DVLMTQSPLSLPVSLGDQASFSCRSSQSIVHSNGNTYLEWYLQKPGQSPKLLIYKVSNRFSGVPDRFSGSGSGTDFTLKISRVEAEDLGVYYCFQGSHVPFTFGSGTKLEIK ?
Outgoing: 46.6

Source: patent US20220119522A1
